- SYSTEM: PD-L1 (recombinant human) (Homo sapiens, UniProt Q9NZQ7 19-238)
- Sequence (Q9NZQ7 19-238): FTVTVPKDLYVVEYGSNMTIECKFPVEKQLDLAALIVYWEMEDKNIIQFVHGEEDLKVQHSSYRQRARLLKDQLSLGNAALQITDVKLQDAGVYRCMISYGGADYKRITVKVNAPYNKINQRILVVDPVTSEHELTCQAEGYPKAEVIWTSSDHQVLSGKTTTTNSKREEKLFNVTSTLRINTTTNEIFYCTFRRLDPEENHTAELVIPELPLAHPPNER
- ASSAY_TEXT: ELONA; 1:1 hyperbolic fit; ELONA: PD-L1 coated in PBS at 4 C overnight; blocked with PBS, 0.1% Tween 20, 1% BSA; wash PBS, 1 mM MgCl2, 0.1% Tween 20, 0.1% BSA; oligo heated 95 C 10 min then on ice 10 min; binding 45 min at room temperature; pH not stated
- SETUP_CONDITIONS: protein: recombinant; label: biotin (ELONA)
ATTRIBUTE_MEASURED: pKd
In simple prose, pKd is minus the logarithm base ten of a concentration in moles per litre.

Exam item: What does the data say about its pKd? Entry: PD-L1 aptamer (structured_DNA) DNA: ACCGACCGTGCTGGACTCATCTCGCTTTTTTCACGGTCCACACTACTATGAGCGAGCCTGGCG
Marked response: 6.97
